- System: coupled thioredoxin (TX)/thioredoxin reductase (TXR) system
- run_description: NADPH oxidation, thioredoxin reductase + thioredoxin
- Assay type: biochemical, bovine
- assay_conditions: Disulfide 0.5 mM; minimum of triplicate assays
recorded_endpoint: NADPH Oxidation, Thioredoxin Reductase + Thioredoxin

Supply measured NADPH Oxidation, Thioredoxin Reductase + Thioredoxin of N[C@@H](CSSCCS(=O)(=O)O)C(=O)NCC(=O)O [BNP7776] in your reply. 15.8 ± 0.3 nmol/min/mL

Supply measured NADPH Oxidation, Thioredoxin Reductase + Thioredoxin of NC(CSSCCS(=O)(=O)O)C(=O)O (stereo not drawn) [BNP7766] in your reply. 14.4 ± 0.2 nmol/min/mL

Supply measured NADPH Oxidation, Thioredoxin Reductase + Thioredoxin of NC(CCC(=O)NC(CSSCCS(=O)(=O)O)C(=O)O)C(=O)O (stereo not drawn) [BNP7774] in your reply. 9.6 ± 0.2 nmol/min/mL

Supply measured NADPH Oxidation, Thioredoxin Reductase + Thioredoxin of N[C@@H](CCC(=O)N[C@@H](CSSCCS(=O)(=O)O)C(=O)NCC(=O)O)C(=O)O [BNP7772] in your reply. 14.1 ± 0.1 nmol/min/mL

Supply measured NADPH Oxidation, Thioredoxin Reductase + Thioredoxin of O=S(=O)([O-])CCSSCCS(=O)(=O)[O-].[Na+].[Na+] [Tavocept™] in your reply. 13.1 ± 0.2 nmol/min/mL

Supply measured NADPH Oxidation, Thioredoxin Reductase + Thioredoxin of NC(CCSSCCS(=O)(=O)O)C(=O)O (stereo not drawn) [BNP7768] in your reply. 8.6 ± 0.06 nmol/min/mL
